Positions of bridges follow the written chain, without caps; N, C: chain ends. Non-standard residues stand in square brackets, D forms with d. Residues, ends and D or L forms follow the SMILES beside them. *: point of attachment. Benzoyl(3-CF3) = O=C(c1cccc(C(F)(F)F)c1)*; Butanoyl(4-Ph) = O=C(CCCc1ccccc1)*; Heptanoyl(6-Me) = CC(C)CCCCC(=O)*; Octanoyl(6-Me) = CCC(C)CCCCC(=O)*; Nonanoyl = CCCCCCCCC(=O)*; X1 = CC[C@H](C)CCCCC(=O)*; Octanoyl = CCCCCCCC(=O)*; Orn = NCCC[C@H](N)C(=O)O; Dab = NCC[C@H](N)C(=O)O; Abu = CC[C@H](N)C(=O)O; Dap = NC[C@H](N)C(=O)O; Aib = CC(C)(N)C(=O)O
Assign Minimum inhibitory concentration (MIC), Ec FADDI-EC001 to each entry below.
Express your answer in µg/mL, writing the number without its unit.

Query: Provide measured Minimum inhibitory concentration (MIC), Ec FADDI-EC001 on Enterobacter cloacae for CC[C@@H]1NC(=O)[C@@H](CC(C)C)NC(=O)[C@H](CCN)NC(=O)[C@@H](NC(=O)[C@H](CN)NC(=O)[C@@H](NC(=O)[C@H](CCCN)NC(=O)c2cccc(C(F)(F)F)c2)[C@@H](C)O)CCNC(=O)[C@H]([C@@H](C)O)NC(=O)[C@H](CCN)NC(=O)[C@H](CCN)NC1=O [Compound 141] ({Benzoyl(3-CF3)}-[Orn]T[Dap][Dab][Dab][dL][Abu][Dab][Dab]T; lactam 4-C) please.
Reply: 2

Query: Fill in Minimum inhibitory concentration (MIC), Ec FADDI-EC001 for CC[C@H](C)CCCCC(=O)N[C@@H](CCN)C(=O)N[C@H](C(=O)N[C@H](CO)C(=O)N[C@H]1CCNC(=O)[C@H]([C@@H](C)O)NC(=O)[C@H](CCN)NC(=O)[C@H](CCN)NC(=O)[C@H]([C@@H](C)O)NC(=O)[C@@H](CC(C)C)NC(=O)[C@H](CCN)NC1=O)[C@@H](C)O [Compound 150, polymyxin D1] (X1-[Dab]T[dS][Dab][Dab][dL]T[Dab][Dab]T; lactam 4-C) tested with Enterobacter cloacae.
Reply: 0.5

Query: GET Minimum inhibitory concentration (MIC), Ec FADDI-EC001 | system: Enterobacter cloacae | item: CCCCCCCCC(=O)N[C@@H](CCN)C(=O)N[C@H](C(=O)N[C@@H](CN)C(=O)N[C@H]1CCNC(=O)[C@H]([C@@H](C)O)NC(=O)[C@H](CCN)NC(=O)[C@H](CCN)NC(=O)[C@H](CO)NC(=O)[C@@H](Cc2ccccc2)NC(=O)[C@H](CCN)NC1=O)[C@@H](C)O [Compound 143] (Nonanoyl-[Dab]T[Dap][Dab][Dab][dF]S[Dab][Dab]T; lactam 4-C)
Reply: 1

Query: Please report Minimum inhibitory concentration (MIC), Ec FADDI-EC001 with Enterobacter cloacae for item CC[C@H](C)CCCCC(=O)N[C@@H](CCN)C(=O)N[C@H](C(=O)N[C@@H](CCN)C(=O)N[C@H]1CCNC(=O)[C@H]([C@@H](C)O)NC(=O)[C@H](CCN)NC(=O)[C@H](CCN)NC(=O)[C@H]([C@@H](C)O)NC(=O)[C@@H](CC(C)C)NC(=O)[C@H](CCN)NC1=O)[C@@H](C)O [Compound 152, polymyxin M1] (X1-[Dab]T[Dab][Dab][Dab][dL]T[Dab][Dab]T; lactam 4-C) .
Reply: 0.5

Query: Write down the reported Minimum inhibitory concentration (MIC), Ec FADDI-EC001 (system: Enterobacter cloacae) of CC(C)C[C@H]1NC(=O)[C@H](CCN)NC(=O)[C@@H](NC(=O)[C@H](CN)NC(=O)[C@@H](NC(=O)[C@H](CCN)NC(=O)CCCc2ccccc2)[C@@H](C)O)CCNC(=O)[C@H]([C@@H](C)O)NC(=O)[C@H](CCN)NC(=O)[C@H](CCN)NC(=O)[C@H](C)NC1=O [Compound 146] ({Butanoyl(4-Ph)}-[Dab]T[Dap][Dab][Dab][dL]A[Dab][Dab]T; lactam 4-C)
Reply: 0.5

Query: Give Minimum inhibitory concentration (MIC), Ec FADDI-EC001 for this entry on Enterobacter cloacae: CC(C)CCCCC(=O)N[C@@H](CCN)C(=O)N[C@H](C(=O)N[C@H](CO)C(=O)N[C@H]1CCNC(=O)[C@H]([C@@H](C)O)NC(=O)[C@H](CCN)NC(=O)[C@H](CCN)NC(=O)[C@H]([C@@H](C)O)NC(=O)[C@@H](CC(C)C)NC(=O)[C@H](CCN)NC1=O)[C@@H](C)O [Compound 151, polymyxin D2] ({Heptanoyl(6-Me)}-[Dab]T[dS][Dab][Dab][dL]T[Dab][Dab]T; lactam 4-C)
Reply: 0.25

Query: For Enterobacter cloacae, give the measured Minimum inhibitory concentration (MIC), Ec FADDI-EC001 of the entry CCCCCCCC(=O)N[C@@H](CCN)C(=O)N[C@H](C(=O)N[C@@H](CN)C(=O)N[C@H]1CCNC(=O)[C@H]([C@@H](C)O)NC(=O)[C@H](CCN)NC(=O)[C@H](CCN)NC(=O)C(C)(C)NC(=O)[C@@H](Cc2ccccc2)NC(=O)[C@H](CCN)NC1=O)[C@@H](C)O [Compound 140] (Octanoyl-[Dab]T[Dap][Dab][Dab][dF][Aib][Dab][Dab]T; lactam 4-C)
Reply: 0.5

Query: Provide Minimum inhibitory concentration (MIC), Ec FADDI-EC001, tested on Enterobacter cloacae, for CC(C)CCCCC(=O)N[C@@H](CCN)C(=O)N[C@H](C(=O)N[C@@H](CCN)C(=O)N[C@H]1CCNC(=O)[C@H]([C@@H](C)O)NC(=O)[C@H](CCN)NC(=O)[C@H](CCN)NC(=O)[C@H]([C@@H](C)O)NC(=O)[C@@H](CC(C)C)NC(=O)[C@H](CCN)NC1=O)[C@@H](C)O [Compound 153, polymyxin M2] ({Heptanoyl(6-Me)}-[Dab]T[Dab][Dab][Dab][dL]T[Dab][Dab]T; lactam 4-C) .
Reply: 0.25

Query: Given CCC(C)CCCCC(=O)N[C@@H](CCN)C(=O)N[C@H](C(=O)N[C@@H](CN)C(=O)N[C@H]1CCNC(=O)[C@H]([C@@H](C)O)NC(=O)[C@H](CCN)NC(=O)[C@H](CCN)NC(=O)[C@H](CC)NC(=O)[C@@H](CC(C)C)NC(=O)[C@H](CCN)NC1=O)[C@@H](C)O (stereo partly drawn) [Compound 139] ({Octanoyl(6-Me)}-[Dab]T[Dap][Dab][Dab][dL][Abu][Dab][Dab]T; lactam 4-C) , report its Minimum inhibitory concentration (MIC), Ec FADDI-EC001 on Enterobacter cloacae.
Reply: 0.5

* * *

Tested on: Enterobacter cloacae
Experimental: MICs of the lipopeptides (trifluoroacetic acid salt, TFA) were determined by broth microdilution in cation-adjusted Mueller-Hinton broth (CAMHB) (Oxoid Australia, Thebarton, SA, Australia) according to Clinical and Laboratory Standards Institute standards (Clinical and Laboratory Standards Institute. Performance standards for antimicrobial susceptibility testing; eighteenth informational supplement M100-S18. Wayne, Pa., 2008). Polymyxin B (sulphate) was employed as control. […]
Positions of bridges follow the written chain, without caps; N, C: chain ends. Non-standard residues stand in square brackets, D forms with d. Residues, ends and D or L forms follow the SMILES beside them. *: point of attachment. Benzoyl(3-CF3) = O=C(c1cccc(C(F)(F)F)c1)*; Tle = CC(C)(C)[C@H](N)C(=O)O; Decanoyl = CCCCCCCCCC(=O)*; dNle = CCCC[C@@H](N)C(=O)O; Octanoyl = CCCCCCCC(=O)*; Dab = NCC[C@H](N)C(=O)O; Abu = CC[C@H](N)C(=O)O; Dap = NC[C@H](N)C(=O)O; Hexanoyl = CCCCCC(=O)*
I'd be grateful if you could share measured Minimum inhibitory concentration, Ec FADDI-EC003 for these entries.

Query: Entry CCCCCCCCCC(=O)N[C@@H](CCN)C(=O)N[C@H](C(=O)N[C@@H](CCN)C(=O)N[C@H]1CCNC(=O)[C@H]([C@@H](C)O)NC(=O)[C@H](CCN)NC(=O)[C@H](CCN)NC(=O)[C@H](C(C)C)NC(=O)[C@@H](CC(C)C)NC(=O)[C@H](CCN)NC1=O)[C@@H](C)O [Compound 41] (Decanoyl-[Dab]T[Dab][Dab][Dab][dL]V[Dab][Dab]T; lactam 4-C) needs its Minimum inhibitory concentration, Ec FADDI-EC003 filled in; supply it.
Reply: 0.5 µg/mL

Query: Fill in Minimum inhibitory concentration, Ec FADDI-EC003 for record CCCCCC(=O)N[C@@H](CCN)C(=O)N[C@H](C(=O)N[C@@H](CN)C(=O)N[C@H]1CCNC(=O)[C@H]([C@@H](C)O)NC(=O)[C@H](CCN)NC(=O)[C@H](CCN)NC(=O)[C@H](C)NC(=O)[C@@H](CC(C)C)NC(=O)[C@H](CCN)NC1=O)[C@@H](C)O [Compound 67] (Hexanoyl-[Dab]T[Dap][Dab][Dab][dL]A[Dab][Dab]T; lactam 4-C)
Reply: 0.25 µg/mL

Query: Provide Minimum inhibitory concentration, Ec FADDI-EC003 value for the following compound: CCCC[C@H]1NC(=O)[C@H](CCN)NC(=O)[C@@H](NC(=O)[C@H](CN)NC(=O)[C@@H](NC(=O)[C@H](CCN)NC(=O)c2cccc(C(F)(F)F)c2)[C@@H](C)O)CCNC(=O)[C@H]([C@@H](C)O)NC(=O)[C@H](CCN)NC(=O)[C@H](CCN)NC(=O)[C@H](CC)NC1=O [Compound 121] ({Benzoyl(3-CF3)}-[Dab]T[Dap][Dab][Dab][dNle][Abu][Dab][Dab]T; lactam 4-C)
Reply: 0.25 µg/mL

Query: Item CCCCCCCC(=O)N[C@@H](CCN)C(=O)N[C@H](C(=O)N[C@@H](CCN)C(=O)N[C@H]1CCNC(=O)[C@H]([C@@H](C)O)NC(=O)[C@H](CCN)NC(=O)[C@H](CCN)NC(=O)[C@H](C(C)C)NC(=O)[C@@H](CC(C)C)NC(=O)[C@H](CCN)NC1=O)[C@@H](C)O [Compound 23] (Octanoyl-[Dab]T[Dab][Dab][Dab][dL]V[Dab][Dab]T; lactam 4-C) : provide Minimum inhibitory concentration, Ec FADDI-EC003
Reply: <0.125 µg/mL

Query: Identify the reported Minimum inhibitory concentration, Ec FADDI-EC003 for the following entry. CCCCCCCC(=O)N[C@@H](CN)C(=O)N[C@H](C(=O)N[C@@H](CCN)C(=O)N[C@H]1CCNC(=O)[C@H]([C@@H](C)O)NC(=O)[C@H](CCN)NC(=O)[C@H](CCN)NC(=O)[C@H]([C@@H](C)O)NC(=O)[C@@H](CC(C)C)NC(=O)[C@H](CCN)NC1=O)[C@@H](C)O [Compound 31] (Octanoyl-[Dap]T[Dab][Dab][Dab][dL]T[Dab][Dab]T; lactam 4-C)
Reply: 0.25 µg/mL

Query: Report measured Minimum inhibitory concentration, Ec FADDI-EC003; entry is CCCCCCCC(=O)N[C@@H](CCN)C(=O)N[C@H](C(=O)N[C@@H](CN)C(=O)N[C@H]1CCNC(=O)[C@H]([C@@H](C)O)NC(=O)[C@H](CCN)NC(=O)[C@H](CCN)NC(=O)[C@H](C(C)(C)C)NC(=O)[C@@H](CC(C)C)NC(=O)[C@H](CCN)NC1=O)[C@@H](C)O [Compound 47] (Octanoyl-[Dab]T[Dap][Dab][Dab][dL][Tle][Dab][Dab]T; lactam 4-C)
Reply: 0.5 µg/mL
